- ASSAY_PROCEDURE: protein stability index of a GFP-peptide fusion (GPS, HEK-293T) (PSI 1-6); higher = more stable;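 also: 24-mer peptide tiles fused after GFP, lentivirally expressed, FACS-sorted into six equal bins by GFP/DsRed ratio, decoded by Illumina sequencing, PSI is the read-weighted mean bin number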
- CONDITION_DESCRIPTION: treatment: MLN4924 1 uM, 8 h; c terminus: a fixed tail appended
# protein stability index per entry
QUANTITY: protein stability index

{"columns": ["RESIDUE_STRING", "QUANTITY", "EXPERIMENTAL_RESULT"],
 "data": [
  ["IKPAPARAPACSPEAAAAQLRATA [FCHO1]", "protein stability index", 3.98],
  ["QAQQGRSSLVWLFSQLYLYSFISL [MCOLN1]", "protein stability index", 3.09],
  ["RASFWLALVGCVISDNPERYSTNL [EDNRA]", "protein stability index", 2.97],
  ["LDSRSTDRVLQWERIDCQGIPPSS [KLHDC2]", "protein stability index", 3.98]
]}

====

- ASSAY_PROCEDURE: protein stability index of a GFP-peptide fusion (GPS, HEK-293T) (PSI 1-6); higher = more stable
- CONDITION_DESCRIPTION: treatment: MLN4924 1 uM, 8 h; c terminus: a fixed tail appended
Note to self: values exactly at 3 are MET. So protein stability index at or above 3 is MET, below is NOT MET.

{"columns": ["RESIDUE_STRING", "CLASS"],
 "data": [
  ["MGSLSSRVLRQPRPALAQQAQGAR [GMCL1]", "MET"],
  ["QYQANKVTHTLTMRQRISRVEESA [PPEF2]", "MET"],
  ["AVLYPRFMGTISDVKTNVQLLKGR [CD207]", "NOT MET"],
  ["VTFREENTIAFRHLFLLGYSDGAD [MCOLN1]", "NOT MET"],
  ["GTGAVVTSLFMTPLDVVKVRLQSQ [SLC25A39]", "NOT MET"],
  ["DWMAAMFGGPFVESSTREVVFPYT [RHOBTB2]", "NOT MET"],
  ["LEEAKQPKNDNVVIPECAHGGLYK [SMOC2]", "MET"],
  ["LRAQVPFEQILSLPELKANPFKER [CIB1]", "MET"],
  ["DAISWYQKKIGAYDQQIWEKSIEQ [PHTF1]", "NOT MET"],
  ["MPCLLMELRRDSSESQLASTESDK [C18orf25]", "MET"],
  ["IGMHREMQVNPISKRMGPMTVVRM [RHOBTB1]", "NOT MET"],
  ["IYDLNIPAFVKFAYVAEREDELSL [NCK2]", "NOT MET"],
  ["NKRKTYTESYIARPDGDCASSLNG [ZC2HC1A]", "MET"],
  ["KALAIILHLLYLLEKVECTPSQEH [FEM1A]", "NOT MET"],
  ["PSMNPDGYEVAAAQGPNKPGYLVG [CPN1]", "MET"],
  ["NAGKVNLPKELPADAVNLTIPASL [PLAGL1]", "MET"],
  ["VPQRTAGGDVPERELYIRWLEVAA [MYORG]", "NOT MET"],
  ["RYFYLLENIAWVKSYNICFELEDS [PDS5B]", "NOT MET"],
  ["SDVLTISGTIMKIGIEAKNLASYD [MCOLN1]", "NOT MET"],
  ["QYAMTRAQRVRAAMFPETLDEGMQ [CTNNB1]", "MET"],
  ["MWWRGCKIKAIMALVAAILLLVII [VAMP4]", "NOT MET"],
  ["LEKEEEKDLVMYSKCQRLFRSPSM [CDC25B]", "MET"],
  ["TSRWSSMEIMEAYSVARQFNLTPP [KCNAB2]", "NOT MET"],
  ["RGDIFERIVHLQETCDLGKIKPEA [NLN]", "MET"],
  ["KAFLTKTMLIVHHRTHTGERPYGC [ZNF649]", "NOT MET"],
  ["AGSSNLPAPERTMAGLSKEPNTLR [VENTX]", "MET"],
  ["DELDMSPGDPKWLDVIERDLHRQF [TBC1D10A]", "MET"],
  ["ILDLLVLEQFLSILPKELQGWVRE [ZSCAN9]", "NOT MET"],
  ["EPLQALLERASATLQDLVFDECGI [PRAME]", "NOT MET"],
  ["FFFSSPGNNNGTSIEDGQIPEIIF [BTBD1]", "NOT MET"],
  ["TKPSKSAALHIDLCKATSPADALQ [INTS4]", "MET"],
  ["TQKLEEIKENAQDTMRQINKKGFW [TOR1AIP2]", "MET"],
  ["SMTTPRCYVGATVLRGRLYAIAGY [KLHL12]", "NOT MET"],
  ["LEQRRQQASEREAPSIEQRLQEVR [FCHSD1]", "MET"],
  ["KMVPRYDLNRHLDEMCANNDFVQV [FAN1]", "NOT MET"],
  ["SDPSTIEASNFQMDRKTRFIIHGF [PNLIPRP1]", "NOT MET"],
  ["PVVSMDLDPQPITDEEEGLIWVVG [PTPRD]", "MET"],
  ["LGPGALHFDLRDDDDAEEEGPKRE [TCF25]", "MET"],
  ["YSPSQYALQYAGDGSVLLIPRTMA [NFE2L1]", "NOT MET"],
  ["LFNILAKFNGITEKEYKTYKENFL [USP39]", "NOT MET"],
  ["LYSSSLGGGVATSPMLIVFHGKYS [GLT8D2]", "NOT MET"],
  ["DSSNSMQTIQKTTTRRIVDGKVVS [KRT18]", "MET"],
  ["QTFQWVKLPATMPEPVYFHCAAVT [KLHDC10]", "NOT MET"],
  ["YTEQELKPLTLEALGHLGNDDSAD [DLC1]", "MET"],
  ["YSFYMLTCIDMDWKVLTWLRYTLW [HACD3]", "NOT MET"],
  ["LPRRDFQRQVWLLFEYPESSGPAR [KCNA3]", "NOT MET"]
]}

====

- ASSAY_PROCEDURE: protein stability index of a GFP-peptide fusion (GPS, HEK-293T) (PSI 1-6); higher = more stable
- CONDITION_DESCRIPTION: treatment: DMSO; c terminus: a fixed tail appended
Note to self: values exactly at 3 are true. So protein stability index at or above 3 is true, below is false.

{"columns": ["RESIDUE_STRING", "CLASS"],
 "data": [
  ["ILDQTTSEDAVGGATLGQTTSEEA [HDAC6]", "true"],
  ["TGCVLGSSGKVLPKWGWEQLEVTC [POMT2]", "false"],
  ["TVIHDFLFSLKESPEKFQIEANFP [FAF2]", "false"],
  ["PIDQGPAIGRVRVLEEQLVKAKEQ [FUT8]", "true"],
  ["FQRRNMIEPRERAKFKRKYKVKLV [NOP53]", "false"],
  ["YHMFQREKVEVQLPELFHKIGVGA [KCNAB2]", "false"],
  ["QRTAKGKPVLAKDSSNPYPNFNFN [AASDHPPT]", "true"],
  ["PAASNSSDLFDLMGSSQATMTSSQ [CLINT1]", "true"],
  ["APGEEEEEEEEATNTHPPASLPSQ [CHGA]", "true"],
  ["PSMNPDGYEVAAAQGPNKPGYLVG [CPN1]", "true"],
  ["TKETEQLRSQLQTLKQQHQQAVEQ [CCDC89]", "true"],
  ["YAAIVAVVAVHVVLALFVYVAWNE [VMA21]", "false"],
  ["MASRAGPRAAGTDGSDFQHRERVA [JAGN1]", "true"],
  ["GATLGQTTSEEAVGGATLAQTTSE [HDAC6]", "true"],
  ["DLIGLPWVCFIYTIMSLASLLFVV [SLC2A12]", "true"],
  ["QPYTCSICRRNFSRRSSLLRHQKL [ZNF75A]", "true"],
  ["MAYDQFLAICRPLTYSTRMSQTVQ [OR3A1]", "false"],
  ["EAWYEDLQEVLSSDENGGTYVSPP [DDIT3]", "true"],
  ["QMMSATAQNREPESVEQLESRIVE [SNX8]", "true"],
  ["YDWLFFSPDKDSIMNIEPAILVMH [INTS3]", "false"],
  ["AEAEPEDQDEGEWGLDQEQVFSLG [ZBED1]", "true"],
  ["YHQGCLVNPTGNLPMWSNQTWNNS [NANOGP8]", "false"],
  ["RRYVASVSLHDRIYVIGGYDGRSR [KLHL12]", "false"],
  ["RYFYLLENIAWVKSYNICFELEDS [PDS5B]", "false"],
  ["FTEASMMMSLTKLADKELVHMISW [ESR2]", "true"],
  ["GLEHAAAGGSSGTTARERPCVRPG [FBF1]", "true"],
  ["QYAMTRAQRVRAAMFPETLDEGMQ [CTNNB1]", "true"],
  ["EIPKNCVVAAVGKELIIFRLVAPT [WDR41]", "false"],
  ["TPDQKYSMDNTPHTPTPFKNALEK [MYBL2]", "true"],
  ["SDTRVGAPATGSGTPGPFTKEGGM [CHIT1]", "true"],
  ["TVKTHLTSLKTKFPAEQYYRFHEH [TSN]", "false"],
  ["ENFKGLAIPYLEHIIHVWEETGSR [VPS39]", "false"],
  ["GFRLAEDGKRCRRKDVCKSTHHGC [MATN2]", "true"],
  ["SRSTSFRGGMGSGGLATGIAGGLA [KRT18]", "true"],
  ["GLALCPEVQDLLEGCELPDLPSSL [SMG5]", "true"],
  ["LAAVTPHDFIEHILRKLPQQREKL [CCND2]", "false"],
  ["LQEVLSSDENGGTYVSPPGNEEEE [DDIT3]", "true"],
  ["QGSLENMSKLLKRQNDILQVVSQG [CD207]", "true"],
  ["LEQRRQQASEREAPSIEQRLQEVR [FCHSD1]", "true"],
  ["ETRDWGGAQFEGEKGRALQIRDWR [ZSWIM9]", "true"],
  ["PRPNRLFLRQLRASHLGNELEGTE [C2CD2L]", "true"],
  ["RMTGGRPPLPPPDDPATLGPHLGL [DYRK1B]", "true"],
  ["NAGKVNLPKELPADAVNLTIPASL [PLAGL1]", "true"],
  ["VRQAFQDQDDRRTWDGRPLTMAAT [GFOD1]", "true"]
]}
